compound: c1ccc(C(CNc2nc(-n3ccnc3)nc3ccccc23)c2ccccc2)cc1 [compound 48]
melting point: 231 °C
//
compound: CC(C)(C)OC(=O)N1CCc2cc(-c3nc(NCC(c4ccccc4)c4ccccc4)c4ccccc4n3)ccc21 [compound 74]
melting point: 127 °C
//
compound: c1ccc(C(CNc2nc(-c3cccc4[nH]ncc34)nc3ccccc23)c2ccccc2)cc1 [compound 35]
melting point: 229 °C
//
compound: Cc1cc2nccn2cc1-c1nc(NCC(c2ccccc2)C2CC2)c2ccccc2n1 (stereo not shown) [compound 179]
melting point: 236 to 238 °C
//
compound: c1ccc(C(CNc2nc(N3Cc4ccccc4C3)nc3ccccc23)c2ccccc2)cc1 [compound 189]
melting point: 293 to 295 °C
//
compound: c1ccc(C(CNc2nc(-c3cccc4ncccc34)nc3ccccc23)c2ccccc2)cc1 [compound 49]
melting point: 207 °C
//
compound: Cc1cc2nccn2cc1-c1nc(NCCc2ccccc2)c2ccccc2n1 [compound 160]
melting point: 192 to 196 °C
//
compound: Cn1cc2c(-c3nc(NCC(c4ccccc4)c4ccccc4)c4ccccc4n3)cccc2n1 [compound 68]
melting point: 121 °C
//
compound: COC(CNc1nc(-c2cn3ccnc3cc2C)nc2ccccc12)c1ccccc1 (stereo not shown) [compound 187]
melting point: 215 to 218 °C
//
compound: Nc1ncc(-c2nc(NCC(c3ccccc3)c3ncccn3)c3ccccc3n2)cn1 (stereo not shown) [compound 104]
melting point: 211 °C
//
compound: c1ccc(C(CNc2nc(N3CCc4[nH]ccc4C3)nc3ccccc23)c2ccccc2)cc1 [compound 163]
melting point: 166 to 168 °C
//
compound: Cn1cnc2ccc(-c3nc(NCC(c4ccccc4)c4ccccc4)c4ccccc4n3)cc21 [compound 64]
melting point: 248 °C
//
compound: Cc1cc2nccn2cc1-c1nc(NCC(c2ccccc2)C(C)C)c2ccccc2n1 (stereo not shown) [compound 169]
melting point: 115 to 118 °C
//
compound: Nc1ncc(-c2nc(NCC(c3ccccc3)C3CCCCC3)c3ccccc3n2)cn1 (stereo not shown) [compound 101]
melting point: 105 °C
//
compound: c1ccc(C2CN(c3nc(-c4cnc5nccn5c4)nc4ccccc34)Cc3ccccc32)cc1 (stereo not shown) [compound 143]
melting point: 104 to 106 °C
//
compound: CCN(CC)C(=O)[C@]1(c2ccccc2)C[C@@H]1CNc1nc(-c2cn3ccnc3cc2C)nc2ccccc12 [compound 171]
melting point: 225 to 228 °C
//
compound: c1ccc(CC(Nc2nc(-c3ccc4nccn4c3)nc3ccccc23)c2ccccc2)cc1 (stereo not shown) [compound 165]
melting point: 203 to 204 °C
//
compound: CC(CNc1nc(-c2ccc3nccn3c2)nc2ccccc12)(c1ccccc1)c1ccccc1 [compound 164]
melting point: 107 to 109 °C
//
compound: CN(C)c1ccc(-c2nc(NCCC(c3ccccc3)c3ccccc3)c3ccccc3n2)cn1 [compound 93]
melting point: 195 °C
//
compound: c1ccc(C(CNc2nc(-n3cccn3)nc3ccccc23)c2ccccc2)cc1 [compound 51]
melting point: 191 °C
//
compound: c1ccc(C(CNc2nc(-c3ccc4nccn4c3)nc3ccccc23)N2CCCC2)cc1 (stereo not shown) [compound 121]
melting point: 205 to 207 °C
//
compound: c1ccc(C(CNc2nc(N3CCc4ccccc4C3)nc3ccccc23)c2ccccc2)cc1 [compound 193]
melting point: 250 to 253 °C
//
compound: Cn1ncc2cc(-c3nc(NCC(c4ccccc4)c4ccccc4)c4ccccc4n3)ccc21 [compound 67]
melting point: 200 °C
//
compound: c1ccc(CCNc2nc(N3CCc4[nH]ccc4C3)nc3ccccc23)cc1 [compound 202]
melting point: 161 to 163 °C
//
compound: c1ccc(C(Nc2nc(-c3ccsc3)nc3ccccc23)c2ccccc2)cc1 [compound 11]
melting point: 152 to 155 °C
//
compound: c1ccc(C(CNc2nc(-c3ccc4cc[nH]c4c3)nc3ccccc23)c2ccccc2)cc1 [compound 31]
melting point: 102 °C
//
compound: COCCNc1ncc(-c2nc(NCC(c3ccccc3)c3ccccc3)c3ccccc3n2)cn1 [compound 47]
melting point: 199 °C
//
compound: c1ccc(C(CNc2nc(-c3ccc4nccnc4c3)nc3ccccc23)c2ccccc2)cc1 [compound 56]
melting point: 198 °C
//
compound: c1ccc(C(CNc2nc(N3CCc4[nH]c5ccccc5c4C3)nc3ccccc23)c2ccccc2)cc1 [compound 191]
melting point: 258 to 260 °C
//
compound: Cc1cc2nccn2cc1-c1nc(NCCc2ccncc2)c2ccccc2n1 [compound 181]
melting point: 234 to 236 °C
//
compound: CC(C)(C)OC(=O)n1cnc2cc(-c3nc(NCC(c4ccccc4)c4ccccc4)c4ccccc4n3)ccc21 [compound 62]
melting point: 183 °C
//
compound: c1ccc(C(CNc2nc(-c3cccs3)nc3ccccc23)c2ccccc2)cc1 [compound 6]
melting point: 148 to 152 °C
//
compound: c1ccc(C(CNc2nc(-c3ccc4ncccc4c3)nc3ccccc23)c2ccccc2)cc1 [compound 50]
melting point: 92 °C
//
compound: CS(=O)(=O)Nc1ncc(-c2nc(NCC(c3ccccc3)c3ccccc3)c3ccccc3n2)cn1 [compound 139]
melting point: 214 °C
